- systemName: T1, EsCas13d, nuclease-dead (Eubacterium siraeum, UniProt B0MS50, R295A;H300A;R849A;H854A)
- T1 sequence: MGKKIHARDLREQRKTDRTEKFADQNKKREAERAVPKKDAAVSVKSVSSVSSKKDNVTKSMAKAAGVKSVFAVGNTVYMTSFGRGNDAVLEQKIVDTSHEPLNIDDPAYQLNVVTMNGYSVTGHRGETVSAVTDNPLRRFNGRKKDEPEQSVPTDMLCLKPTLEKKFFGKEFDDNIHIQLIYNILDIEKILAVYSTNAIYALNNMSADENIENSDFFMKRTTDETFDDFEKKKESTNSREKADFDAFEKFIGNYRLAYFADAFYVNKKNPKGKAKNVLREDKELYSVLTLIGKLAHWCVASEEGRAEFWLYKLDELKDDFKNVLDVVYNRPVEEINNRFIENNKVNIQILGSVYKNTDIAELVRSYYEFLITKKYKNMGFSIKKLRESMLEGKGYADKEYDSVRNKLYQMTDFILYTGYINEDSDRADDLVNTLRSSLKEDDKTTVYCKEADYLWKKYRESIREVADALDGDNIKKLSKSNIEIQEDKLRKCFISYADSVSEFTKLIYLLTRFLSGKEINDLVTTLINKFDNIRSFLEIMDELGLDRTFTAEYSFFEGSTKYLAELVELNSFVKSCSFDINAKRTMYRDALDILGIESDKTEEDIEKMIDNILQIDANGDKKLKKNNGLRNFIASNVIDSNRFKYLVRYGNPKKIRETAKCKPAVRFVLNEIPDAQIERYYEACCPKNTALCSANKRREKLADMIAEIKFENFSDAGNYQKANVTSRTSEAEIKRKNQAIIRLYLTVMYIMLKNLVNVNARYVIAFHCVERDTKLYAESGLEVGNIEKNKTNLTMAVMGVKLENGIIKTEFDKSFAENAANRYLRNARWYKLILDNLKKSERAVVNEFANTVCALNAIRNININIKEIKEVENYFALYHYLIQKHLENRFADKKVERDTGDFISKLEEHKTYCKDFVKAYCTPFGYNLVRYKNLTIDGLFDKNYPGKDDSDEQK
- methodDescription: crRNA (strand 1, pre-loaded); Mg2+; 40 mM Tris-HCl pH 7.5, 150 mM NaCl, 6 mM MgCl2, 1 mM DTT, 0.1% Tween-20, 0.2 mg/ml BSA; 25 C; 10 min per concentration, then washed
- experimentalConditions: tags: His6-TwinStrep-SUMO cleaved; N-terminal SNAP kept (SNAP-Surface 488); label: 3' end held by stalled T7 RNA polymerase
measurementName: Kd

q: I am curious: what Kd value has been reported for target 1 A9U,U11G (mixed) RNA 1: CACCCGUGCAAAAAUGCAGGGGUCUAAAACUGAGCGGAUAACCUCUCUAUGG RNA 2: GGGAAUGGAUCCACAUCUACGAAUUCGUACCAUAGAGAGGGUUUCCGCUCACCGAGAUCGGAAGAGCACACGU ?
a: 10.1 nM

q: Would you kindly repeat that for target 1 complement block 2-13 (mixed) RNA 1: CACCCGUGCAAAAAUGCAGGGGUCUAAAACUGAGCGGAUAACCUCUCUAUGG RNA 2: GGGAAUGGAUCCACAUCUACGAAUUCGUACCAUAGAGACCAAUAGGCGAGACCGAGAUCGGAAGAGCACACGU ?
a: 74 nM

q: What about target 2 MT 5'PFS GAG 3'PFS CUU (mixed) RNA 1: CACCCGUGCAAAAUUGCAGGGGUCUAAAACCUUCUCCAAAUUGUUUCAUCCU RNA 2: GGGAAUGGAUCCACAUCUACGAAUUCGAGAGGAUGAAACAAUUUGGAGAAGCUUAGAUCGGAAGAGCACACGU ?
a: 8.9 nM

q: Follow-up item: target 3 complement block 1-7 (mixed) RNA 1: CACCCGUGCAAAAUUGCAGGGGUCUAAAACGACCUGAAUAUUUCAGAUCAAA RNA 2: GGGAAUGGAUCCACAUCUACGAAUUCGUUUUUGAUCUGAAAUAUAGUCCAGUGCAGAUCGGAAGAGCACACGU
a: 57 nM
